Source of measurements: patent US10517889B2

System: human SMAD7 mRNA
method_description: Dose-dependent inhibition of human SMAD7 mRNA expression in Hep3B cells (Example 3, Study 1 and 2)
Assay type: cell-based
stated_conditions: 2220 nM, electroporation, approximately 16 hours, Study 2
Strand notation (5' to 3'): a small letter for the sugar, then the base; units joined by * are phosphorothioate-linked, units joined directly phosphodiester-linked; [ ] holds rarer units or linkages, { } end groups; capitals alone tell only the bases. k = constrained ethyl (cEt); [5mC] = 5-methylcytosine; d = 2'-deoxy (DNA)
Assignment: determine reported % inhibition of SMAD7 mRNA expression for the given substances.
// units = %; emit number, no label

Data point: 799791 (kG*kG*kG*dA*dG*dA*d[5mC]*d[5mC]*dT*dA*d[5mC]*d[5mC]*dT*k[5mC]*kT*kG; antisense) [compound 799791] ; % inhibition of SMAD7 mRNA expression = 4

Data point: 830138 (antisense kG*kG*kA*dG*dT*dT*dG*d[5mC]*dA*dT*dG*d[5mC]*d[5mC]*kT*kT*kT) [compound 830138] ; % inhibition of SMAD7 mRNA expression = 40

Data point: 799667 (antisense kA*k[5mC]*kA*dG*dA*dT*dG*d[5mC]*d[5mC]*dA*dG*d[5mC]*dA*kA*kG*kG) [compound 799667] ; % inhibition of SMAD7 mRNA expression = 8

Data point: 798931 (antisense kG*kA*kG*dG*dA*dA*dA*dA*dT*dA*dT*dT*dA*kG*k[5mC]*kA) [compound 798931] ; % inhibition of SMAD7 mRNA expression = 43

Data point: 799089 (antisense kA*kG*k[5mC]*dA*dA*dT*dA*d[5mC]*dT*dG*dT*dG*dA*kG*kG*kG) [compound 799089] ; % inhibition of SMAD7 mRNA expression = 40

Data point: 799556 (kA*k[5mC]*kA*dA*d[5mC]*dA*dA*dT*dG*d[5mC]*dT*d[5mC]*dT*kG*kG*k[5mC]; antisense) [compound 799556] ; % inhibition of SMAD7 mRNA expression = 50

----------
Assignment: determine reported pIC50 for the given substances.
Test system: human SMAD7 mRNA
method_description: Dose-dependent inhibition of human SMAD7 mRNA expression in A431 cells, oligonucleotide added without transfection (Example 5, Study 1)
Type: cell-based
stated_conditions: approximately 48 hours, SMAD7 mRNA
Scale for pIC50: -log10 of concentration given in mol/L; no unit attached.

Data point: 830037 (antisense CTATTGGCTGATCTGG; 3-10-3 cEt gapmer, further chemistry not given here) [compound 830037] ; pIC50 = 5.47

Data point: 798781 (CGTAAGATTCACAGCA; 3-10-3 cEt gapmer, further chemistry not given here) [compound 798781] ; pIC50 = 5.44

Data point: 830025 (antisense TTTGTAAATCGAAAGC; 3-10-3 cEt gapmer, further chemistry not given here) [compound 830025] ; pIC50 = 5.33

----------
System: mouse Smad7 mRNA
method_description: Murine Smad7 mRNA expression after subcutaneous administration in BALB/c mice (Example 10)
Assay type: in vivo
stated_conditions: 50 mg/kg subcutaneous once a week for 4 weeks, 24 hours after last dose, kidney
Description: The objective of this study was to evaluate the efficacy of Ionis SMAD7 antisense oligonucleotides compared to ION 736697/Mongersen in BALB/c mice following 4 weeks of treatment. Both ION 830025 and ION 798781 are cross-reactive with mouse Smad7 mRNA. Groups of BALB/c mice were subcutaneously administered 50 mg/kg of Ionis SMAD7 oligonucleotides once a week for 4 weeks. Each group contained 4 mice. One group of mice was administered PBS once a week for 4 weeks. […]
Strand notation (5' to 3'): a small letter for the sugar, then the base; units joined by * are phosphorothioate-linked, units joined directly phosphodiester-linked; [ ] holds rarer units or linkages, { } end groups; capitals alone tell only the bases. k = constrained ethyl (cEt); [5mC] = 5-methylcytosine; d = 2'-deoxy (DNA)
quantity_kind: Mouse Smad7 mRNA expression (% inhibition), Kidney
// units = % inhibition; emit number, no label

Data point: ION 736697: uniform deoxy phosphorothioate oligonucleotide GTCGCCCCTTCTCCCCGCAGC (SEQ ID NO: 2736), same sequence and chemistry as GED-0301 (Mongersen) (DNA, all phosphorothioate, methylation of C not given here) [reference compound] ; Mouse Smad7 mRNA expression (% inhibition), Kidney = 9

Data point: ION 798781 (CGTAAGATTCACAGCA; 3-10-3 cEt gapmer, further chemistry not given here) ; Mouse Smad7 mRNA expression (% inhibition), Kidney = 11

Data point: ION 790615: 3-10-3 (S)-cEt gapmer targeting human SMAD7; top lead compound (k[5mC]*k[5mC]*kA*dA*dT*dG*dA*dG*dA*dA*dT*dG*d[5mC]*kT*kT*k[5mC]) ; Mouse Smad7 mRNA expression (% inhibition), Kidney = 28

Data point: ION 830025 (antisense TTTGTAAATCGAAAGC; 3-10-3 cEt gapmer, phosphorothioate, further chemistry not given here) [sodium salt] ; Mouse Smad7 mRNA expression (% inhibition), Kidney = 5

----------
Assignment: determine reported % Inhibition for the given substances.
Test system: human SMAD7 mRNA
method_description: Antisense inhibition of human SMAD7 mRNA expression in Hep3B cells by 3-10-3 cEt gapmers, 10,000 nM, electroporation (Example 2)
Format: cell-based
stated_conditions: Hep3B cells, electroporation with 10,000 nM antisense oligonucleotide, approximately 24 hours, SMAD7 mRNA by RT-PCR (RTS5062), relative to untreated control cells
Strand notation (5' to 3'): a small letter for the sugar, then the base; units joined by * are phosphorothioate-linked, units joined directly phosphodiester-linked; [ ] holds rarer units or linkages, { } end groups; capitals alone tell only the bases. k = constrained ethyl (cEt); [5mC] = 5-methylcytosine; d = 2'-deoxy (DNA)
Form field: result (number plus unit)

Data point: 830168 (antisense kA*kT*kG*d[5mC]*dT*dT*dT*dT*dA*d[5mC]*dA*d[5mC]*dA*k[5mC]*k[5mC]*k[5mC]) [compound 830168] ; % Inhibition = 81%

Data point: 800087 (antisense kT*kA*kA*dT*dA*dG*dG*dA*dA*dA*dA*d[5mC]*dA*kG*kT*k[5mC]) [compound 800087] ; % Inhibition = 0%

Data point: 800060 (antisense k[5mC]*k[5mC]*k[5mC]*d[5mC]*dA*dA*dA*dA*dG*d[5mC]*dT*d[5mC]*d[5mC]*kA*k[5mC]*kA) [compound 800060] ; % Inhibition = 5%

Data point: 799980 (k[5mC]*k[5mC]*kA*dA*d[5mC]*dG*dG*dT*dT*dG*d[5mC]*d[5mC]*dT*k[5mC]*kA*kT; antisense) [compound 799980] ; % Inhibition = 78%

Data point: 799469 (antisense k[5mC]*kT*k[5mC]*d[5mC]*dG*d[5mC]*dA*dT*dA*dG*dA*d[5mC]*dA*kG*kA*kT) [compound 799469] ; % Inhibition = 69%

Data point: 830049 (kG*kT*kT*dT*d[5mC]*d[5mC]*dG*dA*dT*dT*dG*dG*d[5mC]*kA*kG*kG; antisense) [compound 830049] ; % Inhibition = 43%

Data point: 799989 (kT*kG*k[5mC]*dA*d[5mC]*d[5mC]*dT*dG*dG*d[5mC]*dA*dA*d[5mC]*k[5mC]*kT*kG; antisense) [compound 799989] ; % Inhibition = 57%

Data point: 799940 (antisense k[5mC]*kT*kT*dT*dG*dA*dG*dG*dA*dG*d[5mC]*dA*dG*kG*kG*kT) [compound 799940] ; % Inhibition = 50%

Data point: 830091 (kA*kA*kT*dA*d[5mC]*dA*d[5mC]*dA*dA*dG*dA*d[5mC]*d[5mC]*k[5mC]*kT*kG; antisense) [compound 830091] ; % Inhibition = 37%

Data point: 830032 (antisense kG*k[5mC]*kT*dA*d[5mC]*d[5mC]*dT*dA*dA*dT*dG*dT*d[5mC]*kA*kA*k[5mC]) [compound 830032] ; % Inhibition = 35%

Data point: 830028 (antisense k[5mC]*kA*kG*dT*d[5mC]*dA*dA*dG*dT*dT*dA*d[5mC]*dA*kG*kT*k[5mC]) [compound 830028] ; % Inhibition = 75%

Data point: 798751 (k[5mC]*k[5mC]*kG*dG*dG*d[5mC]*dA*dG*d[5mC]*dA*dG*dG*dA*kG*kG*k[5mC]; antisense) [compound 798751] ; % Inhibition = 0%

----------
System: human SMAD7 mRNA
method_description: Dose-dependent inhibition of human SMAD7 mRNA expression in Hep3B cells (Example 3, Study 1 and 2)
Format: cell-based
stated_conditions: 6670.0 nM, electroporation, approximately 16 hours, Study 2
Strand notation (5' to 3'): a small letter for the sugar, then the base; units joined by * are phosphorothioate-linked, units joined directly phosphodiester-linked; [ ] holds rarer units or linkages, { } end groups; capitals alone tell only the bases. k = constrained ethyl (cEt); [5mC] = 5-methylcytosine; d = 2'-deoxy (DNA)
Label 1 when % inhibition of SMAD7 mRNA expression is at or above 60%; otherwise label 0.

Input: Kindly determine if % inhibition of SMAD7 mRNA expression recorded for 799711 (antisense kG*kG*kT*d[5mC]*dA*dA*dA*d[5mC]*dT*dT*dG*dT*dG*kG*kT*kA) [compound 799711] is above or exactly 60%.
Output: 0

Input: Kindly determine if % inhibition of SMAD7 mRNA expression recorded for 772553 (antisense kT*k[5mC]*kT*dT*dG*dA*dG*d[5mC]*dA*d[5mC]*d[5mC]*dG*dA*kG*kT*kG) [compound 772553] is above or exactly 60%.
Output: 1

Input: Kindly determine if % inhibition of SMAD7 mRNA expression recorded for 830028 (antisense k[5mC]*kA*kG*dT*d[5mC]*dA*dA*dG*dT*dT*dA*d[5mC]*dA*kG*kT*k[5mC]) [compound 830028] is above or exactly 60%.
Output: 1

Input: Kindly determine if % inhibition of SMAD7 mRNA expression recorded for 830100 (kG*kG*kA*dG*d[5mC]*dT*d[5mC]*dA*dA*dA*d[5mC]*dT*dT*kT*kG*kA; antisense) [compound 830100] is above or exactly 60%.
Output: 0

Input: Kindly determine if % inhibition of SMAD7 mRNA expression recorded for 829767 (antisense kG*kG*kA*dG*dG*d[5mC]*dA*d[5mC]*dG*d[5mC]*dG*dG*dT*kG*k[5mC]*kG) [compound 829767] is above or exactly 60%.
Output: 0

Input: Kindly determine if % inhibition of SMAD7 mRNA expression recorded for 830144 (antisense kG*kG*kG*dT*dG*dT*dG*d[5mC]*dA*d[5mC]*d[5mC]*dA*dG*kG*kT*kG) [compound 830144] is above or exactly 60%.
Output: 1

Input: Kindly determine if % inhibition of SMAD7 mRNA expression recorded for 799366 (antisense kT*k[5mC]*kT*d[5mC]*d[5mC]*dG*dA*dG*dT*dT*dA*dT*d[5mC]*k[5mC]*k[5mC]*k[5mC]) [compound 799366] is above or exactly 60%.
Output: 1

Input: Kindly determine if % inhibition of SMAD7 mRNA expression recorded for 799168 (antisense kG*k[5mC]*kT*dA*dA*dG*dA*dA*d[5mC]*dA*dG*dT*dG*kT*k[5mC]*kG) [compound 799168] is above or exactly 60%.
Output: 0

Input: Kindly determine if % inhibition of SMAD7 mRNA expression recorded for 830122 (kG*kA*kG*dA*dA*dT*d[5mC]*dA*dA*dG*d[5mC]*d[5mC]*d[5mC]*kT*kG*kG; antisense) [compound 830122] is above or exactly 60%.
Output: 1

Input: Kindly determine if % inhibition of SMAD7 mRNA expression recorded for 798954 (antisense kA*kT*kA*dA*dG*d[5mC]*dT*dA*dT*dT*dT*d[5mC]*dT*k[5mC]*kA*kA) [compound 798954] is above or exactly 60%.
Output: 0

Input: Kindly determine if % inhibition of SMAD7 mRNA expression recorded for 799486 (antisense k[5mC]*kA*kT*dA*dA*dT*dG*dA*d[5mC]*dT*dT*dA*dT*k[5mC]*k[5mC]*kA) [compound 799486] is above or exactly 60%.
Output: 0
